# pIC50 annotations
# target-under-test: UniProtKB P49841
# Sequence (P49841 whole entry): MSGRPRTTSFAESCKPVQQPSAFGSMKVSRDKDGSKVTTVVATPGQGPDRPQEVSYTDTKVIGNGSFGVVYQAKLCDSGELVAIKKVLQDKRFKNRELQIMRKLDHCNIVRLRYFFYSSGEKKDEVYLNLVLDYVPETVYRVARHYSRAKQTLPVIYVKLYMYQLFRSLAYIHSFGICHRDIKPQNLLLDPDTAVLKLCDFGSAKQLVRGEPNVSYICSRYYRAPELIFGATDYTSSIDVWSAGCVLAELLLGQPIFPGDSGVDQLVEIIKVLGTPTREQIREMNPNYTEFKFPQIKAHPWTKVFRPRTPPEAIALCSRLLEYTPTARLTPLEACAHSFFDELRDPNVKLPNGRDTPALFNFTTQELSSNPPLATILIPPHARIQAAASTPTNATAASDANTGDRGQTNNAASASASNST
# test-protocol: GSK3b TR-FRET kinase assay
# Type: biochemical
# setup-conditions: 1 nM GSK3b, 2 μM ATP, 30 minute preincubation, Table 16; read-out: GSK3-B TR-FRET BIOCHEMICAL (TR-FRET); IC50
pIC50: −log10 of the molar value.
measurement-type: pIC50

>>> result("CC[C@H]1CCN1c1cccc([C@@]2(CC)C3=C(CC(C)(C)CC3=O)Nc3n[nH]cc32)c1 [Compound 911972]")
"< 5.30"
>>> result("CC[C@@]1(c2cccc(-c3cc(C4CCCC4)nn3C)c2)C2=C(CC(C)(C)NC2=O)Nc2n[nH]cc21 [Compound 949509]")
"< 5.30"
>>> result("CCC1(c2cccc(-c3ccnc(C)c3)c2)C2=C(CC(C)(C)C2=O)Nc2n[nH]cc21 (stereo not drawn) [Compound 949840]")
"5.30 to 6.00"
>>> result("CCCC(C(C)=O)c1cccc(C2(CC)C3=C(CC(C)(C)CC3=O)Nc3n[nH]cc32)c1 (stereo not drawn) [Compound 909205]")
"≥ 7.00"
>>> result("CCc1cc(-c2cccc(C3(CC)C4=C(CC(C)(C)CC4=O)Nc4n[nH]cc43)c2)cc(CC)n1 (stereo not drawn) [Compound 929445]")
"< 5.30"
>>> result("CCC1(c2cccc(N(C)c3ccc(OC)nc3)c2)C2=C(CC(C)(C)CC2=O)Nc2n[nH]cc21 (stereo not drawn) [Compound 913252]")
"6.00 to 7.00"
>>> result("CCC1(c2cccc(N3CCC3)c2)C2=C(CC(C)(C)CC2=O)Nc2n[nH]cc21 (stereo not drawn) [Compound 889631]")
"6.00 to 7.00"
>>> result("CCC1(c2cccc(C(F)(F)F)c2)C2=C(CC(C)N(c3cnc(OC)nc3)C2=O)Nc2n[nH]cc21 (stereo not drawn) [Compound 949352]")
"≥ 7.00"
>>> result("CCC1(c2cccc(-c3ccnc(C(F)(F)F)c3)c2)C2=C(CC(C)(C)CC2=O)Nc2n[nH]c(C)c21 (stereo not drawn) [Compound 883989]")
"6.00 to 7.00"
>>> result("C[C@@H]1COCC[C@]12C1=C(CC(C)(C)CC1=O)Nc1n[nH]cc12 [Compound 924310]")
"< 5.30"
>>> result("CC1(C)CC(=O)C2=C(C1)Nc1n[nH]cc1C21CCCc2ccccc21 (stereo not drawn) [Compound 913219]")
"6.00 to 7.00"
>>> result("CCC1(COC)C2=C(CC(C)(C)CC2=O)Nc2n[nH]cc21 (stereo not drawn) [Compound 841866]")
"< 5.30"
>>> result("CC[C@]1(c2cccc(-c3cn(C)nc3C(C)C)c2)C2=C(CC(C)(C)CC2=O)Nc2n[nH]c(C)c21 [Compound 913040]")
"5.30 to 6.00"
>>> result("CC[C@]1(c2cccc(-c3cnn(C)c3F)c2)C2=C(CC(C)(C)NC2=O)Nc2n[nH]cc21 [Compound 950562]")
"6.00 to 7.00"
>>> result("CC[C@]1(c2cccc(C(C)C)c2)C2=C(CC(C)(C)NC2=O)Nc2n[nH]c(C)c21 [Compound 949649]")
"≥ 7.00"

----------
# target-under-test: GSK3α (GST-full length GSK3α) (Homo sapiens (Human), UniProt P49840)
# Sequence (P49840 whole entry): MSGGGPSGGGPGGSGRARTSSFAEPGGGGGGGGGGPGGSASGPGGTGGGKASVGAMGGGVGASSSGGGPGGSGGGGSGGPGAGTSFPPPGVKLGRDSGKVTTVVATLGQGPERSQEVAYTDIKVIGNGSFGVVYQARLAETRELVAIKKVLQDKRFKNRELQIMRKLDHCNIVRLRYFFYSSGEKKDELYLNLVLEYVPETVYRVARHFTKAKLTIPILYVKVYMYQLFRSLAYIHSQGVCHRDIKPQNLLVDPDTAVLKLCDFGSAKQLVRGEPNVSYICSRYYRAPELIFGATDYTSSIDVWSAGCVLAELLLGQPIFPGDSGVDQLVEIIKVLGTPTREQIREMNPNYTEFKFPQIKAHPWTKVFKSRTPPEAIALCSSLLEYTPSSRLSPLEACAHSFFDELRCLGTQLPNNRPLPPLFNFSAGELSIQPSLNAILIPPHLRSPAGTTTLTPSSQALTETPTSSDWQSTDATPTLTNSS
# test-protocol: GSK3α TR-FRET kinase assay
# Format: biochemical
# setup-conditions: 1 nM GSK3α, 4 μM ATP, 30 minute preincubation, Table 16; read-out: GSK3-A TR-FRET BIOCHEMICAL (TR-FRET); IC50
# IC50 annotations
measurement-type: IC50

>>> result("CC[C@]1(c2cccc(C(F)(F)F)c2)C2=C(CCN(c3cscn3)C2=O)Nc2n[nH]cc21")
"> 5000 nM"
>>> result("CCC1(c2cccc(C(F)(F)F)c2)C2=C(CCN(c3cn[nH]c3)C2=O)Nc2n[nH]cc21 (stereo not shown)")
"≤ 100 nM"
>>> result("CC[C@@]1(c2cccc(S(=O)(=O)CC3CC3)c2)C2=C(CC(C)(C)NC2=O)Nc2n[nH]c(C(F)(F)F)c21")
"100 to 1000 nM"
>>> result("CC[C@@]1(c2cccc(C(F)(F)F)c2)C2=C(Nc3n[nH]cc31)c1ccccc1C2=O")
"100 to 1000 nM"
>>> result("CC[C@]1(c2cccc(-c3cc(C)ncc3C)c2)C2=C(CC(C)(C)CC2=O)Nc2n[nH]c(C)c21")
"≤ 100 nM"
>>> result("CCC1(c2cccc(-c3cn(C)nc3C)c2)C2=C(CC3(CCS(=O)(=O)CC3)NC2=O)Nc2n[nH]cc21 (stereo not shown)")
"≤ 100 nM"
>>> result("CCC1(c2cccc(-c3ccnn3CCC(C)C)c2)C2=C(CC(C)(C)CC2=O)Nc2n[nH]cc21 (stereo not shown)")
"≤ 100 nM"

----------
# target-under-test: UniProt P49840
# test-protocol: GSK3α TR-FRET kinase assay
# Assay type: biochemical
# setup-conditions: 1 nM GSK3α, 4 μM ATP, 30 minute preincubation, Table 16; read-out: GSK3-A TR-FRET BIOCHEMICAL (TR-FRET); IC50
pIC50: −log10 of the molar value.
# pIC50 annotations
measurement-type: pIC50

>>> result("CCN(c1cccnc1)c1cccc(C2(CC)C3=C(CC(C)(C)CC3=O)Nc3n[nH]cc32)c1 (centres unmarked) [Compound 917089]")
"6.00 to 7.00"
>>> result("CC(=O)N1CC2(C1)C1=C(CC(C)(C)CC1=O)Nc1n[nH]cc12")
"5.30 to 6.00"
>>> result("CCC1(CC)C2=C(CC(C)(C)CC2=O)Nc2n[nH]cc21")
"5.30 to 6.00"
>>> result("CC[C@@]1(c2cccc(C(F)(F)F)c2)C2=C(CCN(c3cc(C)n(C)n3)C2=O)Nc2n[nH]cc21")
"≥ 7.00"
>>> result("CCC1(c2cccc(N(C(C)=O)C3CCCC3)c2)C2=C(CC(C)(C)CC2=O)Nc2n[nH]cc21 (centres unmarked)")
"≥ 7.00"
>>> result("CCC1(c2cccc(-c3ccnnc3)c2)C2=C(CC(C)(C)CC2=O)Nc2n[nH]cc21 (centres unmarked)")
"≥ 7.00"
>>> result("CCC1(COCc2ccccc2)C2=C(CC(C)(C)CC2=O)Nc2n[nH]cc21 (centres unmarked)")
"5.30 to 6.00"
>>> result("CC[C@]1(c2cccc(N3CCC3)c2)C2=C(CC(C)(C)CC2=O)Nc2n[nH]cc21")
"< 5.30"

----------
# target-under-test: UniProtKB P49841
# test-protocol: GSK3b TR-FRET kinase assay
# Assay type: biochemical
# setup-conditions: 1 nM GSK3b, 2 μM ATP, 30 minute preincubation, Table 16; read-out: GSK3-B TR-FRET BIOCHEMICAL (TR-FRET)
# IC50 annotations
measurement-type: IC50

>>> result("CCC1(c2cccc(S(=O)(=O)C3CCCCC3)c2)C2=C(CC(C)(C)CC2=O)Nc2n[nH]cc21 (centres unmarked) [Compound 943547]")
"> 5 µM"
>>> result("CC1(C)CC(=O)C2=C(C1)Nc1n[nH]cc1C21CCN(S(=O)(=O)c2ccc(F)c(F)c2)CC1 [Compound 948119]")
"≤ 0.1 µM"
>>> result("CC1(C)CC(=O)C2=C(C1)Nc1n[nH]cc1C21CCOC1 (centres unmarked) [Compound 826713]")
"0.1 to 1 µM"
>>> result("CC[C@]1(c2cccc(N(C)c3cccc(OC)n3)c2)C2=C(CC(C)(C)CC2=O)Nc2n[nH]cc21 [Compound 932666]")
"0.1 to 1 µM"
>>> result("CC1(C)CC(=O)C2=C(C1)Nc1n[nH]cc1C21CCN(CC(F)(F)F)CC1 [Compound 874528]")
"0.1 to 1 µM"
>>> result("CCC1(c2cccc(-c3c(C)nnn3C)c2)C2=C(CC(C)(C)CC2=O)Nc2n[nH]cc21 (centres unmarked) [Compound 943996]")
"≤ 0.1 µM"
>>> result("CC[C@]1(c2cccc(-c3ccncc3OC)c2)C2=C(CC(C)(C)CC2=O)Nc2n[nH]cc21 [Compound 945471]")
"1 to 5 µM"
>>> result("O=C1CC2(CCCCC2)CC2=C1C1(CCOCC1)c1c[nH]nc1N2 [Compound 893307]")
"0.1 to 1 µM"

----------
# target-under-test: GSK3α (GST-full length GSK3α) (Homo sapiens (Human))
# test-protocol: GSK3α TR-FRET kinase assay
# Assay type: biochemical
# setup-conditions: read-out: GSK3-A (TR-FRET 1 mM ATP); GMean; IC50; 1 mM ATP; geometric mean
measurement-type: IC50

>>> result("CC[C@@]1(c2cccc(-c3ccnn3C)c2)C2=C(Nc3n[nH]cc31)[C@H](F)C(C)(C)CC2=O")
"≤ 100 nM"
>>> result("CC(C)(C)Cc1[nH]nc2c1C(C)(c1cccc(S(=O)(=O)CC3CC3)c1)C1=C(CC(C)(C)NC1=O)N2 (stereo not shown)")
"100 to 1000 nM"
>>> result("CC1(C)CC(=O)C2=C(C1)Nc1n[nH]cc1C21COC2(CN(C(=O)C(C)(F)F)C2)C1 (stereo not shown)")
"100 to 1000 nM"
>>> result("CCC1(c2cccc(-c3cnn(C)c3C)c2)C2=C(CC(C)(C)CC2=O)Nc2n[nH]c(C)c21 (stereo not shown)")
"≤ 100 nM"
